- Experimental details: NCI Yeast Anticancer Drug Screen. Data for the CLN2oe strain (AID 163);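 note: 0% = growth of vehicle-only control cultures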
- Reported conditions: S. cerevisiae CLN2oe strain, at 33.0 µM, stronger effect = higher value
The panel holds about 79,000 compounds, 15% with a hit somewhere; the sample as a whole holds those more often.
Can you tell me growth inhibition for the items I'm about to list?
Report only the number, with the unit % understood.

So what's the measured growth inhibition for this one? COC(=O)C1=C(C)NC(C)=C(C(=O)OCCCN2CCC(c3ccccc3)(c3ccccc3)CC2)C1c1cccc([N+](=O)[O-])c1 (centres undefined)
98

So what's the measured growth inhibition for this one? COC(=O)CSSCc1ccc([N+](=O)[O-])cc1
43

So what's the measured growth inhibition for this one? O=CC=C(c1ccccc1)c1ccccc1
20

So what's the measured growth inhibition for this one? O=C1C2CC[C@@H]3C(=O)C(Cl)(Cl)[C@@H]3CCC2C1(Cl)Cl (some centres undefined)
10

So what's the measured growth inhibition for this one? OC(c1ccc(F)cc1)(c1ccc(F)cc1)C1CC1
-8

So what's the measured growth inhibition for this one? c1ccc2c(c1)sc1nc3ccncc3nc12
4

So what's the measured growth inhibition for this one? O=C(O)C1OC1(c1cccc(Cl)c1)c1ccccc1Cl (centres undefined)
39

So what's the measured growth inhibition for this one? Cc1ccc2ccc3cccc4ccc1c2c34
-13

So what's the measured growth inhibition for this one? CC1(Cl)CC(O)C2(CC1Br)C1(C)OC1C1OC1(Br)C2(C)C (centres undefined)
31

So what's the measured growth inhibition for this one? O=C(OCCN1CCCCCC1)C(c1ccsc1)C1CCCCC1 (centres undefined)
57

So what's the measured growth inhibition for this one? CN1CCc2ccccc2C1Cc1ccccc1NC(=O)c1sc2ccccc2c1Cl (centres undefined)
62

So what's the measured growth inhibition for this one? O=[N+]([O-])/C=C/c1ccc2ccccc2c1
99

So what's the measured growth inhibition for this one? Clc1ccc(SC(/C=C/NNC2=NC(c3ccccc3)C(c3ccccc3)=NN2)c2ccccc2)cc1 (centres undefined)
1

So what's the measured growth inhibition for this one? COC(=O)CCNc1c2ccccc2nc2cccc([N+](=O)[O-])c12
96

So what's the measured growth inhibition for this one? Nc1ccc2c(c1)C(=O)c1cccc(N)c1C2=O
37

So what's the measured growth inhibition for this one? COP(=O)(OC)/C(=C\C1=CN(C(c2ccccc2)(c2ccccc2)c2ccccc2)CN1)NC=O
25

So what's the measured growth inhibition for this one? COc1ccc(C2c3cc4c(cc3OC(C)(O)C2C)OCO4)c(OC)c1 (centres undefined)
4

So what's the measured growth inhibition for this one? CCC[CH2][Ge]([CH2]CCC)([CH2]CCC)[O]C(=O)C(OC)c1ccccc1 (centres undefined)
41

So what's the measured growth inhibition for this one? CSC(=S)Nc1cccc(C)n1
12

So what's the measured growth inhibition for this one? C[S+](C)C1(c2ccccc2)C(=O)c2ccccc2C1=O
13

So what's the measured growth inhibition for this one? CCC/C(Cl)=N\OC(=O)Nc1cccc(C(F)(F)F)c1
6

So what's the measured growth inhibition for this one? NC(=O)NN=C(CS)CS
0

So what's the measured growth inhibition for this one? BrCC[P+](c1ccccc1)(c1ccccc1)c1ccccc1
90

So what's the measured growth inhibition for this one? Nc1nc(Cl)c(Cl)c(Cl)n1
30
